Kindly supply the reported MIC values for the records listed here.
System: Escherichia coli
test.description: Antimicrobial activity against Escherichia coli ATCC 25922 after 18-24 hrs by two-fold serial dilution method
Assay type: functional

Q: # lookup: MIC of COc1cccc(CO/N=C2\CN(c3nc4c(cc3F)c(=O)c(C(=O)O)cn4C3CC3)CC2CN)c1OC.CS(=O)(=O)O (racemic)
Ans: 0.125 µg/mL

Q: Entry to check: COc1cc(Br)c(CO/N=C2\CN(c3nc4c(cc3F)c(=O)c(C(=O)O)cn4C3CC3)CC2CN)cc1OC.CS(=O)(=O)O (racemic)
Ans: 0.5 µg/mL

Q: Entry to check: CS(=O)(=O)O.NCC1CN(c2nc3c(cc2F)c(=O)c(C(=O)O)cn3C2CC2)C/C1=N\OCc1ccc(OCc2ccccc2)cc1 (racemic)
Ans: 4 µg/mL

Count: 8. Required value per item: MIC.
1. CS(=O)(=O)O.NCC1CN(c2nc3c(cc2F)c(=O)c(C(=O)O)cn3C2CC2)C/C1=N\OCc1ccccc1 (racemic)
2. COc1ccc(CO/N=C2\CN(c3nc4c(cc3F)c(=O)c(C(=O)O)cn4C3CC3)CC2CN)c([N+](=O)[O-])c1OC.CS(=O)(=O)O (racemic)
3. COc1cc(CO/N=C2\CN(c3nc4c(cc3F)c(=O)c(C(=O)O)cn4C3CC3)CC2CN)ccc1OCc1ccccc1.CS(=O)(=O)O (racemic)
4. C[C@H]1COc2c(N3CCN(C)CC3)c(F)cc3c(=O)c(C(=O)O)cn1c23.C[C@H]1COc2c(N3CCN(C)CC3)c(F)cc3c(=O)c(C(=O)O)cn1c23.O
5. COc1ccc(CO/N=C2\CN(c3nc4c(cc3F)c(=O)c(C(=O)O)cn4C3CC3)CC2CN)cc1.CS(=O)(=O)O (racemic)
6. COc1ccc(CO/N=C2\CN(c3nc4c(cc3F)c(=O)c(C(=O)O)cn4C3CC3)CC2CN)c(OC)c1.CS(=O)(=O)O (racemic)
7. CS(=O)(=O)O.Cc1ccc(CO/N=C2\CN(c3nc4c(cc3F)c(=O)c(C(=O)O)cn4C3CC3)CC2CN)cc1C (racemic)
8. COc1cc(CO/N=C2\CN(c3nc4c(cc3F)c(=O)c(C(=O)O)cn4C3CC3)CC2CN)cc(OC)c1OC.CS(=O)(=O)O (racemic)

Ans:
0.03 µg/mL
0.5 µg/mL
2 µg/mL
< 0.008 µg/mL
0.06 µg/mL
0.125 µg/mL
0.015 µg/mL
0.5 µg/mL
